# Test System: Syk (Homo sapiens, UniProt P43405)
# Construct: purchased Carna Biosciences
# Measurement Protocol: Syk HTRF assay
# Type: biochemical
# Assay Context: activity levels A-D, read-out: Activity Level (IC50 in the Syk HTRF assay)
pIC50: −log10 of the molar value.
Assignment: determine reported pIC50 for the given molecules.

What measured pIC50 goes with "CC(C)(O)c1nc2ccc(-c3cccc4nc(Nc5ccc(C(F)(F)F)cc5)nn34)cc2[nH]1" ?
6.30 to 6.60

What measured pIC50 goes with CC(NCc1cccc2nc(Nc3ccc(C(F)(F)F)cc3)nn12)C(N)=O (racemic) ?
6.00 to 6.30

What measured pIC50 goes with "O=C1CCN(Cc2cccc3nc(Nc4ccc(C(F)(F)F)cc4)nn23)CCN1" ?
6.00 to 6.30

What measured pIC50 goes with FC(F)(F)c1ccc(Nc2nc3cccc(OC4CCCNC4)n3n2)cc1 (stereo in doubt) ?
5.00 to 6.00

What measured pIC50 goes with "OC1CN(c2cccc3nc(Nc4ccc(C(F)(F)F)cc4)nn23)C1" ?
6.60 to 11.30

What measured pIC50 goes with "FC(F)(F)c1ccc(Nc2nc3cccc(CN4CCOCC4)n3n2)cc1" ?
5.00 to 6.00

What measured pIC50 goes with Cc1n[nH]c2cc(Nc3nc4cccc(N[C@H]5CC[C@H](O)CC5)n4n3)ccc12 (stereo in doubt) ?
6.60 to 11.30

What measured pIC50 goes with OC1CCC(Cc2cccc3nc(Nc4ccc(C(F)(F)F)cc4)nn23)CC1 (stereo in doubt) ?
6.60 to 11.30

What measured pIC50 goes with "Cc1n[nH]c2cc(Nc3nc4cccc(NC5CCOCC5)n4n3)ccc12" ?
6.60 to 11.30

What measured pIC50 goes with "C[C@H](CO)Nc1cccc2nc(Nc3ccc(C(F)(F)F)cc3)nn12" ?
5.00 to 6.00

What measured pIC50 goes with "CNC(=O)c1ccc(Nc2nc3cccc(N4CC[C@H](O)C4)n3n2)cc1" ?
6.00 to 6.30

* * *

Assignment: determine reported pIC50 for the given compounds.
# Test System: Syk (Homo sapiens, UniProt P43405)
# Construct: purchased Carna Biosciences
# Measurement Protocol: Syk HTRF assay
# Assay type: biochemical
# Assay Context: IC50 activity level, read-out: Activity Level
pIC50: −log10 of the molar value.

Form entry - test system: Syk (Homo sapiens, UniProt P43405); read-out: pIC50; compound: "Cc1cc(Nc2nc3cccc(NC4CCOCC4)n3n2)cnc1N1CCOCC1"
6.00 to 6.30

Form entry - test system: Syk (Homo sapiens, UniProt P43405); read-out: pIC50; compound: "CC1(C)C(=O)Nc2cc(Nc3nc4cccc(N5CCOCC5)n4n3)ccc21"
6.60 to 11.30

Form entry - test system: Syk (Homo sapiens, UniProt P43405); read-out: pIC50; compound: "Cc1noc2cc(Nc3nc4cccc(NC5CCOCC5)n4n3)ccc12"
5.00 to 6.00

Form entry - test system: Syk (Homo sapiens, UniProt P43405); read-out: pIC50; compound: "NCCCCc1cccc2nc(Nc3ccccc3)nn12"
6.00 to 6.30

Form entry - test system: Syk (Homo sapiens, UniProt P43405); read-out: pIC50; compound: O[C@@H]1CCC(Nc2cccc3nc(Nc4ccc(C(F)(F)F)cc4)nn23)C1 (stereo in doubt)
6.30 to 6.60

Form entry - test system: Syk (Homo sapiens, UniProt P43405); read-out: pIC50; compound: "CC(C)Nc1cccc2nc(Nc3ccc4c(c3)NC(=O)C4(C)C)nn12"
6.60 to 11.30

Form entry - test system: Syk (Homo sapiens, UniProt P43405); read-out: pIC50; compound: "OC[C@H]1CC[C@@H](Nc2cccc3nc(Nc4ccc(C(F)(F)F)cc4)nn23)CC1"
6.60 to 11.30

Form entry - test system: Syk (Homo sapiens, UniProt P43405); read-out: pIC50; compound: "Oc1cc(Nc2cccc3nc(Nc4ccc(C(F)(F)F)cc4)nn23)ccn1"
5.00 to 6.00

Form entry - test system: Syk (Homo sapiens, UniProt P43405); read-out: pIC50; compound: "c1ccc(Nc2nc3cccc(Nc4ccccn4)n3n2)cc1"
6.00 to 6.30

Form entry - test system: Syk (Homo sapiens, UniProt P43405); read-out: pIC50; compound: OC(c1cccc2nc(Nc3ccccc3)nn12)C1CCN(Cc2ccccc2)CC1 (stereo not shown)
5.00 to 6.00

Form entry - test system: Syk (Homo sapiens, UniProt P43405); read-out: pIC50; compound: "CNCc1nc2ccc(-c3cccc4nc(Nc5ccc(C(F)(F)F)cc5)nn34)cc2[nH]1"
6.60 to 11.30

Form entry - test system: Syk (Homo sapiens, UniProt P43405); read-out: pIC50; compound: "FC(F)(F)c1n[nH]c2cc(Nc3nc4cccc(CC5CCOCC5)n4n3)ccc12"
6.60 to 11.30

Form entry - test system: Syk (Homo sapiens, UniProt P43405); read-out: pIC50; compound: "O=C1NCc2cc(-c3cccc4nc(Nc5ccccc5)nn34)ccc21"
6.30 to 6.60

* * *

# Test System: Syk (Homo sapiens, UniProt P43405)
# Construct: purchased Carna Biosciences
# Measurement Protocol: Syk HTRF assay
# Type: biochemical
# Assay Context: activity levels A-D, read-out: Activity Level (IC50 in the Syk HTRF assay)
pIC50: −log10 of the molar value.
Observation Type: pIC50

What measured pIC50 goes with "O=c1cc(Cc2cccc3nc(Nc4ccc(C(F)(F)F)cc4)nn23)cc[nH]1" ?
6.60 to 11.30

What measured pIC50 goes with NC(=O)C1CCCN(Cc2cccc3nc(Nc4ccc(C(F)(F)F)cc4)nn23)C1 (centres unmarked) ?
5.00 to 6.00

What measured pIC50 goes with "OC[C@@H]1CCCN1Cc1cccc2nc(Nc3ccc(C(F)(F)F)cc3)nn12" ?
5.00 to 6.00

What measured pIC50 goes with "CO[C@H]1CC[C@@H](N(C)c2cccc3nc(Nc4ccc(C(F)(F)F)cc4)nn23)CC1" ?
5.00 to 6.00

What measured pIC50 goes with "O=C1CN(Cc2cccc3nc(Nc4ccc(C(F)(F)F)cc4)nn23)CCN1" ?
6.60 to 11.30

* * *

Assignment: determine reported IC50 for the given compounds.
# Test System: Syk (Homo sapiens)
# Construct: purchased Carna Biosciences
# Measurement Protocol: Syk HTRF assay
# Assay type: biochemical
# Assay Context: read-out: Activity Level (Syk HTRF assay IC50)

What measured IC50 goes with "Cc1n[nH]c2cc(Nc3nc4cccc(Cc5cc[nH]c(=O)c5)n4n3)ccc12" ?
0.005 to 250 nM

What measured IC50 goes with "N#Cc1cccc(-c2cccc3nc(Nc4ccc(C(N)=O)cc4)nn23)c1" ?
250 to 500 nM

What measured IC50 goes with "Fc1ccccc1-c1cccc2nc(Nc3ccccc3)nn12" ?
1000 to 10000 nM

What measured IC50 goes with "NCCN1Cc2cc(Nc3nc4cccc(-c5ccccc5)n4n3)ccc2C1=O" ?
250 to 500 nM

What measured IC50 goes with "CNC(=O)c1ccc(Nc2nc3cccc(-c4cccc(CCCN)c4)n3n2)cc1" ?
0.005 to 250 nM

What measured IC50 goes with "COCCN1Cc2cc(Nc3nc4cccc(N[C@H]5CC[C@@H](O)CC5)n4n3)ccc2C1=O" ?
0.005 to 250 nM

What measured IC50 goes with "CC(=O)N1CCc2cc(Nc3nc4cccc(-c5ccccc5)n4n3)ccc21" ?
0.005 to 250 nM

What measured IC50 goes with "CC1(C)C(=O)Nc2cc(Nc3nc4cccc(N[C@@H]5CCCNC5)n4n3)ccc21" ?
0.005 to 250 nM

What measured IC50 goes with "Cn1cnc2ccc(Nc3nc4cccc(-c5ccccc5)n4n3)cc21" ?
0.005 to 250 nM

* * *

Assignment: determine reported pIC50 for the given compounds.
# Test System: Syk (Homo sapiens, UniProt P43405)
# Construct: purchased Carna Biosciences
# Measurement Protocol: Syk HTRF assay
# Assay type: biochemical
# Assay Context: IC50 activity level, read-out: Activity Level
pIC50: −log10 of the molar value.

What measured pIC50 goes with "Cc1nnc2cc(Nc3nc4cccc(NC5CCOCC5)n4n3)ccn12" ?
5.00 to 6.00

What measured pIC50 goes with "CN(C)c1cccc2nc(Nc3ccccc3)nn12" ?
5.00 to 6.00

What measured pIC50 goes with N[C@H]1CC[C@H](Oc2cccc3nc(Nc4ccc(C(F)(F)F)cc4)nn23)CC1 (stereo in doubt) ?
6.60 to 11.30

What measured pIC50 goes with "CNCc1nc2cc(-c3cccc4nc(Nc5ccccc5)nn34)ccc2[nH]1" ?
6.60 to 11.30

What measured pIC50 goes with "c1ccc(Nc2nc3cccc(N[C@H]4CCCNC4)n3n2)cc1" ?
6.60 to 11.30

What measured pIC50 goes with "C1=C(c2cccc3nc(Nc4ccccc4)nn23)CCNC1" ?
5.00 to 6.00

What measured pIC50 goes with "O[C@H]1CC[C@@H](Nc2cccc3nc(Nc4ccccc4)nn23)CC1" ?
6.60 to 11.30
